Hello, the source for this data is ChEMBL document CHEMBL4340574, in case you need it.

Observed Ki for Histamine H3 receptor (Homo sapiens, UniProt Q9Y5N1), reported per entry below.
# unit: nM | format: bare number

// Ki lookup, key: "Fc1ccc(Cn2ccc3c(N4CCC(N5CCCCC5)CC4)nc(Cl)nc32)cc1" 30

// Ki lookup, key: "Clc1nc(N2CCC(N3CCOCC3)CC2)c2ccn(CCN3CCOCC3)c2n1" 317

// Ki lookup, key: "Nc1nc(N2CCC(N3CCCCC3)CC2)c2ccn(CCN3CCOCC3)c2n1" 121

Proceed to the following item.
// Ki lookup, key: "Nc1nc(N2CCC(N3CCOCC3)CC2)c2ccn(CCN3CCOCC3)c2n1" 848
